Data origin: PubChem BioAssay AID1159580

assay-protocol: chemical genetic growth profiling, strain panel (AID 1159580);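 also: tested at 20 µM; growth read once vehicle control cultures reached saturation at 30 °C; 1 = growth at the plate median or of vehicle wells; lower values mean less growth of the strain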
experimental-parameters: S. cerevisiae deletion strains, growth OD, locus YOL012C, strain htz1
Out of some 5,500 compounds screened, about 2,000 (36%) were called active. Another 18% or so got no clear call; they are omitted. Some of the results follow.
test-readout: normalized growth

INSERT INTO measurements (compound, test_readout, assay_result) VALUES
  ('COc1cc2cc[n+]3cc4c(OC)c(OC)ccc4cc3c2cc1OC', 'normalized growth', 0.901),
  ('CSc1ccc2c(c1)C(N1CCN(C)CC1)Cc1ccccc1S2 (stereo not given)', 'normalized growth', 0.27),
  ('COc1cc2c3cc1Oc1cc(ccc1O)C[C@@H]1c4c(cc(OC)c(O)c4Oc4ccc(cc4)C[C@@H]3N(C)CC2)CC[N+]1(C)C', 'normalized growth', 0.91),
  ('N[C@@H]1CONC1=O', 'normalized growth', 0.629),
  ('CC(=O)O[C@H]1C[C@@H](O)C(C)(C)C2C[C@@H](OC(C)=O)[C@]3(C)C(CC[C@@]4(C)[C@H](c5ccoc5)OC(=O)C5OC543)[C@]21C (stereo not given in full)', 'normalized growth', 0.76);

----------
assay-protocol: chemical genetic growth profiling, strain panel (AID 1159580)
experimental-parameters: S. cerevisiae deletion strains, growth OD, locus YLR058C, strain SHM2, active compounds read low
The whole screen tested about 5,500 compounds, of which about 2,000 (36%) were called active. Inconclusive results (about 18%) are left out. The list shows a part of the results.
Measured normalized growth, listed per entry for reference.
test-readout: normalized growth

INSERT INTO results (compound, assay_result) VALUES
  ('NCC(=O)CCC(=O)O', 1.01),
  ('Cc1cc(=O)c2c(o1)-c1c(cc(O)c(O)c1C(=O)O)OC2', 1.01),
  ('COc1ccc(-c2cc(=O)c3cc(OC)ccc3o2)cc1', 0.99),
  ('C#CCOS(=O)OC1CCCCC1Oc1ccc(C(C)(C)C)cc1 (centres undefined)', 1.02);

----------
assay-protocol: chemical genetic growth profiling, strain panel (AID 1159580)
experimental-parameters: S. cerevisiae deletion strains, growth OD, locus YPL051W, strain arl3, active compounds read low
The campaign covered roughly 5,500 compounds. About 2,000 (36%) were called active. Not shown: some 18% with an inconclusive outcome. This is one part of the list.
test-readout: normalized growth

INSERT INTO measurements (smiles_structure, test_readout, assay_result) VALUES
  ('Nc1ccc(C(=O)O)c(O)c1', 'normalized growth', 0.979),
  ('ClC(Cl)=C(c1ccc(Cl)cc1)c1ccc(Cl)cc1', 'normalized growth', 0.989),
  ('CC(=O)Nc1ccc(O)cc1', 'normalized growth', 1.01);

----------
assay-protocol: chemical genetic growth profiling, strain panel (AID 1159580)
experimental-parameters: S. cerevisiae deletion strains, growth OD, locus YNL248C, strain rpa49, active compounds read low
Screen size: about 5,500 compounds; about 2,000 (36%) were called active. About 18% were inconclusive and are not listed. The list shows a part of the results.
Measured normalized growth, listed per entry for reference.
test-readout: normalized growth

INSERT INTO measurements (molecule, assay_result) VALUES
  ('CC(C)c1ccc2c(c1O)CC[C@H]1C3=C(CC[C@]21C)C(=O)OC3', 0.957),
  ('CC(=O)OCC(=O)[C@H]1CCC2C3CC=C4C[C@@H](O)CC[C@]4(C)C3CC[C@@]21C (stereo partly drawn)', 0.899),
  ('CC(=O)O[C@@H]1CC2C(C)(C)C(=O)CC[C@]2(C)C2CC[C@@]3(C)[C@H](c4ccoc4)OC(=O)C4OC43[C@@]21C (stereo partly drawn)', 0.942),
  ('COc1ccc(-c2cc(=O)c3c(OC(C)=O)cc(OC(C)=O)cc3o2)cc1', 0.955),
  ('Cn1c(=O)c2[nH]c(C3CCCC3)nc2n(C)c1=O', 0.968),
  ('CC(=O)O[C@H]1C[C@@]2(C)[C@H](c3ccoc3)OC(=O)[C@H]3O[C@]32[C@@]2(C)C1[C@]1(C)C(C[C@H]2OC(C)=O)C(C)(C)[C@H](OC(C)=O)C[C@@H]1OC(C)=O (stereo partly drawn)', 0.984),
  ('O=c1[nH]c2cc(Cl)c(Cl)cc2[nH]c1=O', 1.01),
  ('O=C(O)c1nc2cc(Cl)c(Cl)cc2[nH]c1=O', 0.984),
  ('NCC(=O)CCC(=O)O', 1),
  ('O=C1CC[C@]23C=CC(=O)NCCCCNCCCNC(=O)/C=C/c4ccc(c2c4)O[C@@H]3C1', 1.03),
  ('Nc1ccc(C(=O)O)c(O)c1', 0.967),
  ('CN(C)C(=O)Oc1cc(OC(=O)N(C)C)cc(C(O)CNC(C)(C)C)c1 (stereo not drawn)', 1),
  ('COc1c(O)cc2c(-c3ccccc3)cc(=O)oc2c1OC', 1.03);

----------
assay-protocol: chemical genetic growth profiling, strain panel (AID 1159580)
experimental-parameters: S. cerevisiae deletion strains, growth OD, locus YGL086W, strain mad1
The whole screen tested about 5,500 compounds, of which about 2,000 (36%) were called active. About 18% were inconclusive and are not listed. Cut-off read from the data, not from the text of the source: active = normalized growth mostly below about 0.91 (no sharp cut-off); inconclusive = no clear call, values can overlap the other calls; inactive = mostly above about 0.92. The list shows a part of the results.
Outcomes: label 1 for active, label 0 for inactive

INSERT INTO assay_data (compound, qualitative_label) VALUES
  ('COc1ccc(-c2coc3cc(OC)cc(O)c3c2=O)cc1', 'label 0'),
  ('CC[N+]1(C)CCCC(OC(=O)C(O)(c2ccccc2)c2ccccc2)C1 (stereo not drawn)', 'label 0'),
  ('O=c1c(-c2ccccc2)coc2cc(O)cc(O)c12', 'label 1');

----------
assay-protocol: chemical genetic growth profiling, strain panel (AID 1159580);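 also: tested at 20 µM; growth read once vehicle control cultures reached saturation at 30 °C; 1 = growth at the plate median or of vehicle wells; lower values mean less growth of the strain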
experimental-parameters: S. cerevisiae deletion strains, growth OD, locus YKL190W, strain CNB1, active compounds read low
Screen size: about 5,500 compounds; about 2,000 (36%) were called active. About 18% were inconclusive and are not listed. This is one part of the list.
Measured normalized growth, listed per entry for reference.
test-readout: normalized growth

INSERT INTO measurements (compound, test_readout, assay_result) VALUES
  ('Nc1nc(N)c2nc(-c3ccccc3)c(N)nc2n1', 'normalized growth', 1),
  ('O=C(NNC(=O)c1ccccc1[N+](=O)[O-])c1ccc(Cl)cc1', 'normalized growth', 1.01),
  ('NCC(=O)CCC(=O)O', 'normalized growth', 1.01),
  ('CC(=O)O[C@H]1C[C@H](O[C@H]2[C@@H](O)C[C@H](O[C@H]3[C@@H](O)C[C@H](O[C@H]4CC[C@@]5(C)C(CCC6C5C[C@@H](O)[C@]5(C)[C@@H](C7=CC(=O)OC7)CC[C@]65O)C4)O[C@@H]3C)O[C@@H]2C)O[C@H](C)[C@H]1O[C@@H]1O[C@H](CO)[C@@H](O)[C@H](O)[C@H]1O (stereo partly drawn)', 'normalized growth', 1.01),
  ('COc1cc2cc[n+]3cc4c(OC)c(OC)ccc4cc3c2cc1OC', 'normalized growth', 0.982),
  ('C[n+]1cc2c3c(ccc2c2ccc4cc5c(cc4c21)OCO5)OCO3', 'normalized growth', 0.0545),
  ('COc1cc(O)c2c(=O)c(-c3ccc(O)cc3)coc2c1', 'normalized growth', 0.961),
  ('COc1ccc(-c2coc3cc(O)cc(O)c3c2=O)cc1', 'normalized growth', 0.223);

----------
assay-protocol: chemical genetic growth profiling, strain panel (AID 1159580);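 also: tested at 20 µM; growth read once vehicle control cultures reached saturation at 30 °C; 1 = growth at the plate median or of vehicle wells; lower values mean less growth of the strain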
experimental-parameters: S. cerevisiae deletion strains, growth OD, locus YOR106W, strain vam3, active compounds read low
The whole screen tested about 5,500 compounds, of which about 2,000 (36%) were called active. Roughly 18% stayed inconclusive and do not appear here. Some of the results follow.
Labelling field: enter label 1 if recorded normalized growth is less than 1. Enter label 0 if it equals or exceeds that cut-off.

INSERT INTO results (compound, qualitative_label) VALUES
  ('CCCCCCCCCc1ccc(O)cc1', 'label 1'),
  ('O=c1cc(-c2cccc(O)c2)oc2ccc(O)cc12', 'label 1'),
  ('FC(F)(F)C(Cl)Br (stereo unspecified)', 'label 0'),
  ('CCCCC1C(=O)N(c2ccccc2)N(c2ccccc2)C1=O', 'label 0');

----------
assay-protocol: chemical genetic growth profiling, strain panel (AID 1159580);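 also: tested at 20 µM; growth read once vehicle control cultures reached saturation at 30 °C; 1 = growth at the plate median or of vehicle wells; lower values mean less growth of the strain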
experimental-parameters: S. cerevisiae deletion strains, growth OD, locus YGR252W, strain gcn5, active compounds read low
About 2,000 (36%) of roughly 5,500 compounds were called active. Not shown: some 18% with an inconclusive outcome. This is one part of the list.
test-readout: normalized growth

INSERT INTO assay_data (smiles_structure, test_readout, assay_result) VALUES
  ('CC(C)[C@]12O[C@H]1[C@@H]1O[C@@]13[C@@]1(C)CCC4=C(COC4=O)[C@@H]1C[C@@H]1O[C@@]13C2=O', 'normalized growth', 0.922),
  ('Cn1c(=O)c2[nH]c(C3CCCC3)nc2n(C)c1=O', 'normalized growth', 0.904),
  ('CN(C)CCC=C1c2ccccc2C=Cc2ccccc21', 'normalized growth', 0.904);
